- protocol-summary: clinical
- applied-conditions: human, plasma, oral, 4 mg
quantity: Tmax (h)
Give just the numeric value; h need not be written.

Request: Which Tmax value is on record for `O=C(NOC[C@H](O)CO)c1ccc(F)c(F)c1Nc1ccc(I)cc1F` ?
Result: 1

----------
- protocol-summary: clinical
- applied-conditions: human, plasma, oral, 4 mg
quantity: concentration at 21 day (ng/mL)
Give just the numeric value; ng/mL need not be written.

Request: Which concentration at 21 day value is on record for `O=C(NOC[C@H](O)CO)c1ccc(F)c(F)c1Nc1ccc(I)cc1F` ?
Result: 82

----------
- protocol-summary: Pilot food effect assessment of plasma pharmacokinetics
- applied-conditions: human, plasma, oral, 1 mg, Tmax Fasted, 1 mg BID, individual patients
quantity: Tmax (h)
Give just the numeric value; h need not be written.

Request: Which Tmax value is on record for `O=C(NOC[C@H](O)CO)c1ccc(F)c(F)c1Nc1ccc(I)cc1F` ?
Result: 1
